Here the recorded log10(MIC) is given for each entry.
- Tested on: Enterococcus faecalis
- measurement-description: Antimicrobial activity against Enterococcus faecalis ATCC 29212 after 24 hrs by broth microdilution method
- Type: functional
- measurement-setup: ATCC 29212, 24 h
assay-metric: log10(MIC) (log10 of the value in µg/mL)

Cc1nc(SCC(=O)c2ccc(Cl)c(Cl)c2)n(Nc2ccc(Cl)cc2)c1C | 1.70
COc1ccc(Nn2c(SCC(=O)c3cccc(F)c3)nc(C)c2C)cc1 | 2.60
Cc1nc(SCC(=O)c2cccc(F)c2)n(Nc2ccc(Cl)cc2)c1C | 2.00
Cc1ccc(Nn2c(SCC(=O)c3ccccc3)nc(C)c2C)cc1 | 2.60
Cc1ccc(Nn2c(SCC(=O)c3ccc(Cl)c(Cl)c3)nc(C)c2C)cc1 | 2.60
COc1ccc(C(=O)CSc2nc(C)c(C)n2Nc2ccccc2)cc1OC | 2.60
Cc1nc(SCC(=O)c2ccc(F)cc2)n(Nc2ccccc2)c1C | 2.60
COc1ccc(Nn2c(SCC(=O)c3ccc(Cl)c(Cl)c3)nc(C)c2C)cc1 | 2.60
COc1ccc(Nn2c(SCC(=O)c3cccc(Cl)c3)nc(C)c2C)cc1 | 2.90
Cc1nc(SCC(=O)c2ccc(F)c(F)c2)n(Nc2ccccc2)c1C | 1.40
COc1ccc(Nn2c(SCC(=O)c3ccc(Cl)cc3)nc(C)c2C)cc1 | 2.60
COc1cccc(C(=O)CSc2nc(C)c(C)n2Nc2ccc(C)cc2)c1 | 2.90
Cc1nc(SCC(=O)c2cccc(Cl)c2)n(Nc2ccccc2)c1C | 2.60
COc1ccc(C(=O)CSc2nc(C)c(C)n2Nc2ccccc2)cc1 | 2.60
COc1ccc(C(=O)CSc2nc(C)c(C)n2Nc2ccc(C)cc2)cc1 | 1.40
COc1ccc(C(=O)CSc2nc(C)c(C)n2Nc2ccc(OO)cc2)cc1 | 2.90
Cc1ccc(Nn2c(SCC(=O)c3cccc(F)c3)nc(C)c2C)cc1 | 2.30
Cc1nc(SCC(=O)c2ccc(Cl)cc2)n(Nc2ccc(Cl)cc2)c1C | 2.90
COc1ccc(C(=O)CSc2nc(C)c(C)n2Nc2ccc(C)cc2)cc1OC | 2.00
Cc1ccc(Nn2c(SCC(=O)c3ccc(F)cc3)nc(C)c2C)cc1 | 3.20
Cc1ccc(Nn2c(SCC(=O)c3cccc(Cl)c3)nc(C)c2C)cc1 | 2.90
COc1cccc(C(=O)CSc2nc(C)c(C)n2Nc2ccc(Cl)cc2)c1 | 2.30

----------
- Tested on: Nakaseomyces glabratus
- measurement-description: Antimicrobial activity against Candida glabrata ATCC 90030 after 24 hrs by broth microdilution method
- Type: functional
- measurement-setup: ATCC 90030, 24 h
assay-metric: MIC (µg/mL)

COc1ccc(Nn2c(SCC(=O)c3cccc(OC)c3)nc(C)c2C)cc1 | 800
COc1ccc(Nn2c(SCC(=O)c3ccc(Cl)cc3)nc(C)c2C)cc1 | 400
Cc1nc(SCC(=O)c2cccc(Cl)c2)n(Nc2ccccc2)c1C | 400
Cc1nc(SCC(=O)c2ccccc2)n(Nc2ccc(Cl)cc2)c1C | 800
COc1ccc(Nn2c(SCC(=O)c3ccc(F)c(F)c3)nc(C)c2C)cc1 | 800
COc1ccc(Nn2c(SCC(=O)c3cccc(Cl)c3)nc(C)c2C)cc1 | 800
COc1ccc(C(=O)CSc2nc(C)c(C)n2Nc2ccccc2)cc1OC | 800
Cc1nc(SCC(=O)c2cccc(F)c2)n(Nc2ccc(Cl)cc2)c1C | 400
CC(=O)N1CCN(c2ccc(OCC3COC(Cn4ccnc4)(c4ccc(Cl)cc4Cl)O3)cc2)CC1 (stereo not drawn) | 100
Cc1nc(SCC(=O)c2ccc(Cl)c(Cl)c2)n(Nc2ccccc2)c1C | 200
Cc1ccc(Nn2c(SCC(=O)c3cccc(Cl)c3)nc(C)c2C)cc1 | 800
COc1ccc(Nn2c(SCC(=O)c3ccc(F)cc3)nc(C)c2C)cc1 | 400
COc1ccc(C(=O)CSc2nc(C)c(C)n2Nc2ccc(C)cc2)cc1OC | 100
